B1: ZBED2 (parent)
chain: FHLAPARAGHHPNQYATCRLCGRQ

- Variants of: B1
- PROCEDURE_TEXT: protein stability index of a GFP-peptide fusion (GPS, HEK-293T) (PSI 1-6); higher = more stable;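 further: lentivirally expressed fusions sorted by FACS into six bins by GFP to DsRed ratio, PSI derived from sequencing read proportions per bin multiplied by bin number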
- CONDITION_DETAILS: c terminus: a fixed tail appended
Answer each item with its documented protein stability index.
# answer = number (no unit)

Which protein stability index value is on record for P5Y ?
1.52

Endpoint output: protein stability index of A8P . Value?
2.56

Return reported protein stability index; argument: G22Q
1.82

Can you look up the measured protein stability index of H2P for me?
2.78

# lookup: protein stability index of C21P
2.59

Fill blank: measured protein stability index of the variant R23E is ____.
1.54

Quick one: protein stability index for P5V ?
1.96

Please give the measured protein stability index for this variant: T17L
1.25

Need protein stability index of F1I , thanks.
2.21

Please look up its protein stability index: C21F
1.97

// returns reported protein stability index for input L3F
1.93

What protein stability index value was documented for this variant, L3P ?
3.45

What value of measured protein stability index is listed for Y15H ?
2.14

// lookup protein stability index for T17Y
2.15

Given the entry P12F , report its measured protein stability index.
2.1

# input variant: C21T ; wanted: its protein stability index
2.72

Quick one: protein stability index for C18L ?
1.42

Form field: reported protein stability index of R7H
2.61

Requested field: protein stability index. Item: G9E
1.97

Which protein stability index value belongs to G9I ?
1.84

Data request, read-out protein stability index, for P12Y
1.47

// lookup protein stability index for H10G
1.34

Endpoint output: protein stability index of R23S . Value?
1.52

I'd like to know its protein stability index. The variant in question is Y15R
1.15

Requested read-out: protein stability index. Entry: T17M
2.42

I'd like to know its protein stability index. The variant in question is T17E
1.73

Tell me the measured protein stability index of Q14T , please.
1.47

Param item = G22Y ; retrieve measured protein stability index.
2.12

Which protein stability index reading was recorded for the variant A8K ?
1.69

What protein stability index value was documented for this variant, Y15Q ?
2.65

Consider the variant shown here: F1L What is its recorded protein stability index?
2.13

What does the record list as protein stability index for A6W ?
1.36

Could you share which protein stability index value was measured for C18N ?
3.56

Which protein stability index value is on record for P5C ?
2.04

What protein stability index value was documented for this variant, R23C ?
1.32

If you can, please state the reported protein stability index value of R23F .
2.1
